target: c-Src SH2; assay: SH2 binding enrichment of the phosphorylated peptide, bacterial display (enrichment ratio); higher = better substrate or ligand; peptides without Tyr show the background;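 note: peptide library displayed on the E. coli surface as eCPX fusions, selected cells deep-sequenced, score is each peptide's frequency after selection divided by its frequency in the input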
outcome.measure: SH2 binding enrichment
Give bare numbers.

Below: 3 sequences and their reported SH2 binding enrichment.
{"polymer.sequence": "VNYGAYINNFK [GLB1_Y488_D491N]", "SH2 binding enrichment": 1.72}
{"polymer.sequence": "RPSELYYSKIG [SMG1_Y2253]", "SH2 binding enrichment": 4.1}
{"polymer.sequence": "ANFTEYVATSW [CDKL5_Y171_R175S_YF]", "SH2 binding enrichment": 0.545}

Below is a list of sequences. For each, state its recorded SH2 binding enrichment.
1. QQLVAYYSKHT [SRC_Y232_A237T]
2. YQASYYRRGDR [LTK_Y677_R673Q]
3. MSLRSYGSWEG [APC_Y96_R99W]

1. 0.823
2. 0.418
3. 0.282

Batch lookup, SH2 binding enrichment per entry.
1. LFSNAYLNDLA [ALDH1A1_Y119_YF]
2. IPGVEYLVSII [TNC_Y1775]
3. EKHGQYLIGHG [EPHB4_Y581_D576E]
4. FIGRIYLYLTK [GARS1_Y414]
5. VTVLDYEKIGK [SYT1_Y365_D366E]
6. YMLYQYLKQIE [RPAP3_Y569_D564Y]
7. DRTGHYLCNAC [GATA1_Y223]
8. AAVDEYLEHRR [FAM221A_Y17_Y20H]

1: 1.29; 2: 0.648; 3: 0.381; 4: 0.74; 5: 0.89; 6: 1.44; 7: 0.503; 8: 0.418

For every item in the list below, what is its measured SH2 binding enrichment?
1. CSPLLYRVIMS [OR8D4_Y132]
2. LSAPEYGPKLK [TBC1D14_Y46]
3. FISVGYVDDTQ [HLA-B_Y51]
4. MSYDRYMAICH [OR2A5_Y123]
5. EPFELYCEMGS [CBL_Y371_Q367P_YF]

0.393
0.5
0.599
0.79
0.397

Provide SH2 binding enrichment values for the following items, in order.
1. SLDLSYYPTSS [EMD_Y181]
2. ATGMEYLASQK [FGFR2_Y616_R612T]
3. IFGVSYDEYRY [CFTR_Y512]
4. GSTLSYFGLAA [P2RX7_Y343]
5. HCFNSYTFPRL [PAK7_Y316_S312C_YF]
6. SELVCYDARVH [MET_Y971_R970C]
7. VAVTKYCKEEL [ATP7B_Y1078]
8. CCNHPYLINGA [CHD7_Y1256]

1: 1.27; 2: 0.465; 3: 1.36; 4: 0.646; 5: 0.678; 6: 0.561; 7: 0.53; 8: 0.541

# return SH2 binding enrichment for each item in the list
1. QRPYVYYYSYL [PTEN_Y176_R173P]
2. ETDTRYFDEEF [AKT1_Y437]
3. AEEEIYGIFGA [SRCtide_2014]

1: 0.734; 2: 0.775; 3: 0.494

----------
biological target: FGFR3 (UniProt P22607); experiment: phosphorylation enrichment, bacterial display (enrichment ratio); higher = better substrate or ligand; peptides without Tyr show the background
Sequence (P22607 whole entry, looked up): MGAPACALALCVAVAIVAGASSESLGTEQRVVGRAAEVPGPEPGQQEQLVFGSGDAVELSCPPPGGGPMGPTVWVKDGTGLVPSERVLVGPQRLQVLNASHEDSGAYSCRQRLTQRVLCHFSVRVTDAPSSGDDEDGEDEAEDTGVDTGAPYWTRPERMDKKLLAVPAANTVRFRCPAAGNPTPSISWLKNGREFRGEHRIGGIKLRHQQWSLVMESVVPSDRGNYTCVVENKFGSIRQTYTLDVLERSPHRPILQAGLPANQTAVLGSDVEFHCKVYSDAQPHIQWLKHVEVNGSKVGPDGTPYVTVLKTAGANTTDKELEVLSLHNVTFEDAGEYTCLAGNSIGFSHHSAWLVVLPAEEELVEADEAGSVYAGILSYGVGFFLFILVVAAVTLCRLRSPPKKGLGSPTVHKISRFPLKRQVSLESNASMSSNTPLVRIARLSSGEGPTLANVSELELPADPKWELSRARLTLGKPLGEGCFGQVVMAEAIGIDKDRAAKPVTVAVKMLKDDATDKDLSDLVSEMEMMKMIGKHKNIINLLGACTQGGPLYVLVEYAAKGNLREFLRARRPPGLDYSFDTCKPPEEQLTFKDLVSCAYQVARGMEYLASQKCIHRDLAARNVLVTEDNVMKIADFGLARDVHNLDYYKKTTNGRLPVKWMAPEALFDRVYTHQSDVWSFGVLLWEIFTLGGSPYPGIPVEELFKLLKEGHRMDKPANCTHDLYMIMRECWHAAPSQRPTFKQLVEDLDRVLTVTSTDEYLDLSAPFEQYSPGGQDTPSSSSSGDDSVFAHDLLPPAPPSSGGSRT
Answer each item with its documented phosphorylation enrichment.

Study these solved cases before continuing.
{"polymer.sequence": "ILCTVYAFKMR [GRM3_Y754_T758M]", "phosphorylation enrichment": 0.89}
{"polymer.sequence": "WQQQSYLDSGI [CTNNB1_Y30]", "phosphorylation enrichment": 0.597}
{"polymer.sequence": "HRAVEYLLTGI [RAD23A_Y197]", "phosphorylation enrichment": 0.817}
{"polymer.sequence": "LVRAFYCERRR [CARD11_Y970]", "phosphorylation enrichment": 0.585}
{"polymer.sequence": "CFTRKYTLPPG [HSPB1_Y142]", "phosphorylation enrichment": 0.604}
{"polymer.sequence": "MSYDRYMAICH [OR2A5_Y123]", "phosphorylation enrichment": 0.672}
{"polymer.sequence": "GGTPLYRDRQG [AGXT_Y194_M195R]", "phosphorylation enrichment": 0.423}
{"polymer.sequence": "FISVGYVDDTQ [HLA-B_Y51]", "phosphorylation enrichment": 0.743}
{"polymer.sequence": "AVRVFYRKCPR [EPHB2_Y194]", "phosphorylation enrichment": 0.645}
{"polymer.sequence": "HNLDYYKQTTN [FGFR3_Y648_K650Q]", "phosphorylation enrichment": 2.61}

Record phosphorylation enrichment for all entries; do not skip any.
1. MHDKEYFSVHN [MET_Y1234_Y1230H_YF]
2. RGRSTCFWPRP [GAGE12J_Y9_Y9C_YF]
3. PQIVKYRPDCI [LDHB_Y128_S129R]
4. EMFNPCFGLFE [NEDD4L_Y679_Y679C_YF]
5. DGMADYSDPSF [CDC5L_Y459_YF]

0.969
0.928
0.537
0.798
1
